Quick record of IC50 values for Pf NEK3 (PF3D7_1201600) (Plasmodium falciparum).
Note: unit nM is implicit; provide only the numeric part.

{"substance-smiles": "CC[C@@H]1C(=O)N(C)c2cnc(Nc3ccc(C(=O)N[C@H]4CC[C@H](N5CCN(CC6CC6)CC5)CC4)cc3OC)nc2N1C(C)C", "scale-unit": "nM", "IC50": 130}

Now consider the entry below.
Sample `C[C@@H](Oc1cc(-n2cnc3ccc(CN4CCN(C)CC4)cc32)sc1C(N)=O)c1ccccc1C(F)(F)F` ; IC50 observed: 19

* * *

Form field: EC50 (one value per entry).
# Test system: Plasmodium falciparum strain 3D7
# experiment-notes: SYBR Green I proliferation assay, asynchronous blood stage, 3D7
# condition-description: 3D7, 72 h, read-out: Pf 3D7 EC50
Provide only the numeric value, understood in µM.

Example molecules with recorded EC50:
{"substance-smiles": "CC[C@@H]1C(=O)N(C)c2cnc(Nc3ccc(C(=O)NC4CCN(C)CC4)cc3OC)nc2N1C1CCCC1", "tested-on": "Plasmodium falciparum strain 3D7", "recorded-value": 0.135}
{"substance-smiles": "CC[C@@H]1C(=O)N(C)c2cnc(Nc3ccc(C(=O)N[C@H]4CC[C@H](N5CCN(CC6CC6)CC5)CC4)cc3OC)nc2N1C(C)C", "tested-on": "Plasmodium falciparum strain 3D7", "recorded-value": 0.284}

What the record says about `C[C@@H](Oc1cc(-n2cnc3ccc(CN4CCN(C)CC4)cc32)sc1C(N)=O)c1ccccc1C(F)(F)F` : EC50 is 1.41
